This collection of values is drawn from patent US10550143B2.

Study System: human sodium-glucose cotransporter 2 (SGLT2) (Homo sapiens, UniProt P31639)
Construct: expressed in transfected cells; host or cells: NIH3T3 (mouse fibroblast) cells expressing hSGLT2
Sequence (P31639 whole entry): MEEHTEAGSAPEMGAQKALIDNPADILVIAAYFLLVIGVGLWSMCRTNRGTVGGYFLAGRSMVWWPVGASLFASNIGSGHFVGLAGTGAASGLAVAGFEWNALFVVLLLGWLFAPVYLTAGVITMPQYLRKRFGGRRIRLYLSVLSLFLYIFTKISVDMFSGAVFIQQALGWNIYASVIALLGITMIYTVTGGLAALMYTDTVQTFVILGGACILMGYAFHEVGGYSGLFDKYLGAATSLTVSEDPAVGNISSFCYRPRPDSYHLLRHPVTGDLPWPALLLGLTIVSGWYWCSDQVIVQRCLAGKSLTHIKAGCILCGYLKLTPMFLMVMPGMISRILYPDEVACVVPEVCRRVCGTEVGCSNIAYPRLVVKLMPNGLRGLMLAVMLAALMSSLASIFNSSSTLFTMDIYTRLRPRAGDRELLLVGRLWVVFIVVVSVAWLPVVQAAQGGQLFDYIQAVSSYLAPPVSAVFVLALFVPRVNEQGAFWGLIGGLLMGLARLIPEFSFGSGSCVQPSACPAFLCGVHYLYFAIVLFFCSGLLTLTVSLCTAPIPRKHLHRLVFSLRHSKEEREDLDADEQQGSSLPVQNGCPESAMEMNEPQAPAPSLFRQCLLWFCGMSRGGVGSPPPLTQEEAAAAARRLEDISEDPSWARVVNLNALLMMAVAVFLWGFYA
Test Method Notes: In vitro SGLT2 inhibition, methyl-α-D-[U-14C]glucopyranoside uptake in NIH3T3-hSGLT2 cells
Format: cell-based
Experimental Conditions: SGLT2, 100 nM; read-out: % Inhibition rate ± SD 100 nM
Description: Inhibition of the compounds of formula I against human sodium-glucose cotransporter 2 (SGLT2) was determined experimentally and the experimental procedures were carried out as reference^1. […] SGLT2 transports D-glucose at 1:1 sodium-glucose ratio, glucose is replaced by the non-metabolic and isotope labeled methyl-aD-[U-^14C] glucopyranoside and methyl-aD-glucopyranoside, and the amount of isotope transferred into the cells was determined. […] IC50 is calculated as follows: […]
Please use Criterion met whenever inhibition at 0.1 µM is not below 60%, and Criterion not met whenever it is.

QUERY: Has C[C@H]1O[C@]2(OCc3ccc(Cc4ccc5ccccc5c4)cc32)[C@H](O)[C@@H](O)[C@@H]1O [Example A14] a recorded inhibition at 0.1 µM greater than or equal to 60%?
RESULT: Criterion not met

QUERY: # bool: inhibition at 0.1 µM of C[C@H]1O[C@]2(OCc3cc(F)c(Cc4ccc(-c5ccccn5)s4)cc32)[C@H](O)[C@@H](O)[C@@H]1O [Example A46] >= 60%
RESULT: Criterion met

QUERY: Is the recorded value of inhibition at 0.1 µM equal to or greater than 60% for this compound? COCCc1ccc(Cc2cc3c(cc2Cl)CO[C@]32O[C@H](C)[C@@H](O)[C@H](O)[C@H]2O)s1 [Example A114]
RESULT: Criterion met

QUERY: State whether the measured inhibition at 0.1 µM reaches 60%, counting equality as reaching it, for CCCOCCc1ccc(Cc2cc3c(cc2Cl)CO[C@]32O[C@H](C)[C@@H](O)[C@H](O)[C@H]2O)s1 [Example A116]
RESULT: Criterion met

QUERY: Please check the record CCc1ccc(C(O)c2cc3c(cc2Cl)CO[C@]32O[C@H](C)[C@@H](O)[C@H](O)[C@H]2O)s1 (stereo partly shown) [Example A120] and state if its inhibition at 0.1 µM is at or above 60%.
RESULT: Criterion not met

QUERY: Is inhibition at 0.1 µM at least 60%? Consider C[C@H]1O[C@]2(OCc3cc(F)c(Cc4cc5ccccc5o4)cc32)[C@H](O)[C@@H](O)[C@@H]1O [Example A48]
RESULT: Criterion not met

QUERY: In plain terms: is recorded inhibition at 0.1 µM at least 60% for CCc1ccc(Cc2ccc3c(c2)[C@]2(OC3)O[C@H](C)[C@@H](O)[C@H](O)[C@H]2O)cc1 [Example A2] ?
RESULT: Criterion met

---

Test Method Notes: Pharmacokinetics in rats after intragastric and intravenous administration
Format: in vivo, rat
Experimental Conditions: rat, plasma, po, gavage 10 mg/kg
Test Readout: MRT (h)
// units = h; emit number, no label

QUERY: Given the entry CCc1ccc(Cc2cc3c(cc2Cl)CO[C@]32O[C@H](C)[C@@H](O)[C@H](O)[C@H]2O)s1 , report its measured MRT.
RESULT: 3.79

---

Test Method Notes: Pharmacokinetics in rats after intragastric and intravenous administration
Assay type: in vivo, rat
Experimental Conditions: rat, plasma, iv, vein 2 mg/kg
Test Readout: MRT
Please answer using the number first and the unit second.

QUERY: If you can, please state the reported MRT value of CCc1ccc(Cc2cc3c(cc2Cl)CO[C@]32O[C@H](C)[C@@H](O)[C@H](O)[C@H]2O)s1 .
RESULT: 58.9 min

---

Test Method Notes: Pharmacokinetics in rats after intragastric and intravenous administration
Format: in vivo, rat
Experimental Conditions: rat, plasma, iv, vein 2 mg/kg
Test Readout: Tmax (min)
# value in min; strip the unit string

QUERY: Tmax lookup needed for CCc1ccc(Cc2cc3c(cc2Cl)CO[C@]32O[C@H](C)[C@@H](O)[C@H](O)[C@H]2O)s1 , thanks.
RESULT: 15

---

Would you kindly list Selectivity for each of these compounds?
Study System: human sodium-glucose cotransporter 2 (SGLT2) (Homo sapiens)
Construct: expressed in transfected cells; host or cells: NIH3T3 (mouse fibroblast) cells expressing hSGLT2
Test Method Notes: In vitro SGLT2 inhibition, methyl-α-D-[U-14C]glucopyranoside uptake in NIH3T3-hSGLT2 cells
Format: cell-based
Experimental Conditions: IC50 SGLT1/IC50 SGLT2
Lab note: write the figure by itself, no unit.

QUERY: Form field: reported Selectivity of CC(O)c1ccc(Cc2cc3c(cc2Cl)CO[C@]32O[C@H](C)[C@@H](O)[C@H](O)[C@H]2O)s1 (stereo partly shown)
RESULT: 166

QUERY: Item under review: COCCc1ccc(Cc2cc3c(cc2Cl)CO[C@]32O[C@H](C)[C@@H](O)[C@H](O)[C@H]2O)s1 . Reported Selectivity?
RESULT: 83

QUERY: Looking for the measured Selectivity of CCc1ccc(Cc2cc3c(cc2Cl)CO[C@]32O[C@H](C)[C@@H](O)[C@H](O)[C@H]2O)cc1 , can you help?
RESULT: 13

QUERY: # input compound: CCc1ccc(Cc2ccc3c(c2)[C@]2(OC3)O[C@H](C)[C@@H](O)[C@H](O)[C@H]2O)cc1 ; wanted: its Selectivity
RESULT: 351

---

Test Method Notes: Pharmacokinetics in rats after intragastric and intravenous administration
Type: in vivo, rat
Experimental Conditions: rat, plasma, intravenous, vein 2 mg/kg
Test Readout: AUC(0-t) (ng·h/mL)
Number in ng·h/mL, nothing else.

QUERY: Requested field: AUC(0-t). Item: CCc1ccc(Cc2cc3c(cc2Cl)CO[C@]32O[C@H](C)[C@@H](O)[C@H](O)[C@H]2O)s1
RESULT: 252

---

Test Method Notes: Pharmacokinetics in rats after intragastric and intravenous administration
Type: in vivo, rat
Experimental Conditions: rat, plasma, po, gavage 10 mg/kg
Test Readout: Cmax (ng/mL)
Respond with the bare value in ng/mL.

QUERY: Report Cmax for CCc1ccc(Cc2cc3c(cc2Cl)CO[C@]32O[C@H](C)[C@@H](O)[C@H](O)[C@H]2O)s1 [Example A28] please.
RESULT: 273

---

For each of the compounds below, state its inhibition at 0.1 µM.
Study System: human sodium-glucose cotransporter 2 (SGLT2) (Homo sapiens)
Construct: expressed in transfected cells; host or cells: NIH3T3 (mouse fibroblast) cells expressing hSGLT2
Test Method Notes: In vitro SGLT2 inhibition, methyl-α-D-[U-14C]glucopyranoside uptake in NIH3T3-hSGLT2 cells
Type: cell-based
Experimental Conditions: SGLT2, 100 nM; read-out: % Inhibition rate ± SD 100 nM
Report only the number, with the unit % understood.

QUERY: Record lookup: for human sodium-glucose cotransporter 2 (SGLT2) (Homo sapiens), what inhibition at 0.1 µM belongs to C[C@H]1O[C@]2(OCc3cc(Cl)c(Cc4ccc(C(F)(F)F)cc4)cc32)[C@H](O)[C@@H](O)[C@@H]1O ?
RESULT: 71.5

QUERY: Fill in the recorded inhibition at 0.1 µM for this compound, with human sodium-glucose cotransporter 2 (SGLT2) (Homo sapiens) as test system: C[C@H]1O[C@]2(OCc3cc(Cl)c(C(=O)c4ccc(C(F)(F)F)c(F)c4)cc32)[C@H](O)[C@@H](O)[C@@H]1O
RESULT: 44.3

QUERY: Form field - read-out: inhibition at 0.1 µM; system: human sodium-glucose cotransporter 2 (SGLT2) (Homo sapiens); submitted item: CCOc1ccc(Cc2cc3c(cc2Cl)CO[C@]32O[C@H](C)[C@@H](O)[C@H](O)[C@H]2O)cc1
RESULT: 90.5

QUERY: inhibition at 0.1 µM of C[C@H]1O[C@]2(OCc3cc(Cl)c(Cc4ccc(C5(C#N)CC5)cc4)cc32)[C@H](O)[C@@H](O)[C@@H]1O on human sodium-glucose cotransporter 2 (SGLT2) (Homo sapiens)?
RESULT: 96.2

QUERY: Query for human sodium-glucose cotransporter 2 (SGLT2) (Homo sapiens): what inhibition at 0.1 µM does the record show for C[C@H]1O[C@]2(OCc3cc(Cl)c(Cc4cc5ccccc5o4)cc32)[C@H](O)[C@@H](O)[C@@H]1O ?
RESULT: 103

QUERY: # get_value(readout= inhibition at 0.1 µM, system= human sodium-glucose cotransporter 2 (SGLT2) (Homo sapiens)) for C[C@H]1O[C@]2(OCc3cc(F)c(Cc4cc5ccccc5s4)cc32)[C@H](O)[C@@H](O)[C@@H]1O
RESULT: 50.2

QUERY: Could you share what inhibition at 0.1 µM was measured for C[C@H]1O[C@]2(OCc3ccc(Cc4ccc(-c5ccc(F)cc5)s4)cc32)[C@H](O)[C@@H](O)[C@@H]1O , tested on human sodium-glucose cotransporter 2 (SGLT2) (Homo sapiens)?
RESULT: 31.4

QUERY: Give human sodium-glucose cotransporter 2 (SGLT2) (Homo sapiens) inhibition at 0.1 µM for C[C@H]1O[C@]2(OCc3ccc(Cc4cc5ccccc5s4)cc32)[C@H](O)[C@@H](O)[C@@H]1O
RESULT: 50.8

QUERY: Request - read-out inhibition at 0.1 µM | tested on human sodium-glucose cotransporter 2 (SGLT2) (Homo sapiens) | compound C[C@H]1O[C@]2(OCc3ccc(Cc4cc5ccccc5o4)cc32)[C@H](O)[C@@H](O)[C@@H]1O
RESULT: 39

QUERY: # get_value(readout= inhibition at 0.1 µM, system= human sodium-glucose cotransporter 2 (SGLT2) (Homo sapiens)) for C[C@H]1O[C@]2(OCc3ccc(Cc4ccc(-c5ccccn5)s4)cc32)[C@H](O)[C@@H](O)[C@@H]1O
RESULT: 46.9

QUERY: Given the entry C[C@H]1O[C@]2(OCc3cc(Cl)c(Cc4ccc(-c5ccc(F)cc5)s4)cc32)[C@H](O)[C@@H](O)[C@@H]1O , what inhibition at 0.1 µM was observed with human sodium-glucose cotransporter 2 (SGLT2) (Homo sapiens)?
RESULT: 91.5

QUERY: Missing value: inhibition at 0.1 µM, human sodium-glucose cotransporter 2 (SGLT2) (Homo sapiens), entry C[C@H]1O[C@]2(OCc3cc(Cl)c(C(=O)c4ccc(C(F)(F)F)cc4)cc32)[C@H](O)[C@@H](O)[C@@H]1O . Fill in?
RESULT: 39.9

QUERY: Record COc1ccc(Cc2cc3c(cc2Cl)CO[C@]32O[C@H](C)[C@@H](O)[C@H](O)[C@H]2O)cc1 : what is its inhibition at 0.1 µM with human sodium-glucose cotransporter 2 (SGLT2) (Homo sapiens)?
RESULT: 101

QUERY: Please state recorded inhibition at 0.1 µM (tested on human sodium-glucose cotransporter 2 (SGLT2) (Homo sapiens)) of Cc1ccc(Cc2ccc3c(c2)[C@]2(OC3)O[C@H](C)[C@@H](O)[C@H](O)[C@H]2O)cc1
RESULT: 26.9
